These measurements were taken from paper PMC6940761.

- targetOrTestSystem: Human Monoamine Oxidase A (hMAO-A) (Homo sapiens)
- Construct: purchased Sigma-Aldrich
- Sequence (P21397 1-527): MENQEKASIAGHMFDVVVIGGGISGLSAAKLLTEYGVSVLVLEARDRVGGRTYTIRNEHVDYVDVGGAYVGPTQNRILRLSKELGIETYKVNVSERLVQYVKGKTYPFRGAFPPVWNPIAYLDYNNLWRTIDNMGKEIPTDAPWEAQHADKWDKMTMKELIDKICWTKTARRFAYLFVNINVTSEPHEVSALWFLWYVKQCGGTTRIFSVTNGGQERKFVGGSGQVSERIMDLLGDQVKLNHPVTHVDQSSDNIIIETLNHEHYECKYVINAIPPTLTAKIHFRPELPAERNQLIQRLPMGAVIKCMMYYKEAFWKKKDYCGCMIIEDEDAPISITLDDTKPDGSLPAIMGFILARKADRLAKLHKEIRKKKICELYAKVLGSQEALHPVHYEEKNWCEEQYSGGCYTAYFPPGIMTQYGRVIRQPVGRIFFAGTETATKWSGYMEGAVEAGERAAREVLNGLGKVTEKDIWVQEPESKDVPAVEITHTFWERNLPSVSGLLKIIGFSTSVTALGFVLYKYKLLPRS
- assayText: hMAO-A inhibition, MAO-Glo chemiluminescent assay and enzyme kinetics
- Type: biochemical
- testParameters: hMAO-A; log dose-inhibition curve, triplicate; read-out: IC50 (μM, Mean ± SD)
Please respond with reported IC50 for every item in the list.
Answers are plain numbers, in µM.

compound="CC1=C[C@H]2c3c(O)cc(-c4cc5ccc(O)cc5o4)cc3O[C@@]3(c4ccc(O)cc4O)Oc4cc(O)ccc4[C@H](C1)[C@@H]23 [Compound 1, mulberrofuran G]" targetortestsystem="Human Monoamine Oxidase A (hMAO-A) (Homo sapiens)" measured=54.8

Look up IC50 of Cc1cc2c3c(c1)-c1c(O)cc(-c4cc5ccc(O)cc5o4)cc1OC3(c1ccc(O)cc1O)Oc1cc(O)ccc1-2 (centres unmarked) [Compound 3, albanol B] and report it.
114
